tested on: MV4;11 (acute myelocytic leukemia); assay: MTT cytotoxicity assay, leukemic cell line MV4;11; assay type: cell-based; details: Homo sapiens, MV4-11, 72 h, three days
MEASURED_PARAMETER: IC50 (µM)
One number for each entry, in µM.

For every item below, please supply its IC50.
1. CC(C)c1[nH]nc2c(NCc3ccc(-c4ccccn4)cc3)nc(NCC(O)CN)nc12 (stereo not shown)
2. CC(C)c1[nH]nc2c(NCc3ccc(-c4ccccn4)cc3)nc(NC3CCCCC3N)nc12 (stereo not shown)
3. CC(C)c1[nH]nc2c(NCc3ccc(-c4ccccn4)cc3)nc(N3CCN(CCO)CC3)nc12
4. CC(C)c1n[nH]c2c(NCc3ccc(-c4ccccn4)cc3)nc(S(C)(=O)=O)nc12

0.51
0.38
0.37
1.69

====

Field: IC50. Provide a value for each of the compounds that follow.
System: THP1 (human monocytic cell line)
Assay: MTT cytotoxicity assay, leukemic cell line THP1
Assay type: cell-based
Conditions: three days
Source text: Cytotoxicity of the compounds is the major property determining their antileukemic efficacy in vivo. One of the parameters used, as the basis for cytotoxicity assays, is the metabolic activity of viable cells. […]
Numbers only, in µM.

// solved cases for IC50 follow
COMPOUND: CCN(CC)CCNc1nc(NCc2ccc(-c3ccccn3)cc2)c2[nH]nc(C(C)C)c2n1 [Compound 50]
IC50, µM: 0.08
--
COMPOUND: CC(C)c1n[nH]c2c(NCc3ccc(-c4ccccn4)cc3)nc(N[C@H](C)CCO)nc12 [Compound 31]
IC50, µM: 0.26
--
COMPOUND: CC(C)c1n[nH]c2c(NCc3ccc(-c4ccccn4)cc3)nc(NCC(C)N3CC3)nc12 (stereo not shown) [Compound 57]
IC50, µM: 0.29

Let us move to another entry and its IC50.
Reported IC50 ( CC(C)c1n[nH]c2c(NCc3ccc(-c4ccccn4)cc3)nc(NCCCN)nc12 [Compound 41] ) = 0.27

====

tested on: MV4;11 (acute myelocytic leukemia); assay: MTT cytotoxicity assay, leukemic cell line MV4;11; type: cell-based; settings: Homo sapiens, MV4-11, 72 h, three days
MEASURED_PARAMETER: log10(IC50) (log10 of the value in µM)
Recorded IC50 (log10, µM)

COMPOUND: CC(C)c1[nH]nc2c(NCc3ccc(-c4ccccn4)cc3)nc(N3CCOCC3)nc12
MEASURED_PARAMETER: log10(IC50)
MEASURED_VALUE: -0.44
--
COMPOUND: COc1ccc(CNc2nc(NCc3ccc(-c4ccccn4)cc3)c3n[nH]c(C(C)C)c3n2)cc1
MEASURED_PARAMETER: log10(IC50)
MEASURED_VALUE: -0.01
--
COMPOUND: CC(C)c1n[nH]c2c(NCc3ccc(-c4ccccn4)cc3)nc(NCCN)nc12
MEASURED_PARAMETER: log10(IC50)
MEASURED_VALUE: -0.60

For every item below, please supply its log10(IC50).
1. CC(C)c1[nH]nc2c(NCc3ccc(-c4ccccn4)cc3)nc(N3CCSCC3)nc12
2. CC(C)c1[nH]nc2c(NCc3ccc(-c4ccccn4)cc3)nc(NCC(C)(C)O)nc12
3. CC(C)c1[nH]nc2c(NCc3ccc(-c4ccccn4)cc3)nc(NCCN3CCC3)nc12
4. CC(C)c1[nH]nc2c(NCc3ccc(-c4ccccn4)cc3)nc(N[C@H]3CC[C@H](N)CC3)nc12
5. CC(C)c1n[nH]c2c(NCc3ccc(-c4ccccn4)cc3)nc(N[C@@H]3CCCC[C@H]3N)nc12 (relative stereo)

1: -0.06; 2: -1.15; 3: -0.62; 4: -0.72; 5: -1.05

====

target: CDK2/Cyclin E (Homo sapiens, UniProt P24941); construct: made in house; host or cells: Sf9 insect cells (baculovirus); test: CDK2/Cyclin E kinase inhibition (33P-ATP, histone H1); type: biochemical; details: 15 μM ATP
MEASURED_PARAMETER: IC50 (µM)
Numbers only, in µM.

// solved cases for IC50 follow
COMPOUND: CC[C@@H](CO)Nc1nc(NCc2ccc(-c3ccccn3)cc2)c2n[nH]c(C(C)C)c2n1 [Compound 84]
IC50 (µM): 0.098
--
COMPOUND: CC(C)c1n[nH]c2c(NCc3ccc(-c4ccccn4)cc3)nc(N[C@@H]3CCCC[C@H]3N)nc12 (relative stereo) [Compound 64]
IC50 (µM): 0.046
--
COMPOUND: CC(C)c1[nH]nc2c(NCc3ccc(-c4ccccn4)cc3)nc(N3CCCCC3)nc12 [Compound 14]
IC50 (µM): 0.042

For every item below, please supply its IC50.
1. CC(C)c1[nH]nc2c(NCc3ccc(-c4ccccn4)cc3)nc(NCCN3CCC3)nc12 [Compound 54]
2. CC(C)c1n[nH]c2c(NCc3ccc(-c4ccccn4)cc3)nc(NCCN)nc12 [Compound 40]
3. CC(C)c1[nH]nc2c(NCc3ccc(-c4ccccn4)cc3)nc(NC3CCCCC3N)nc12 (centres unmarked) [Compound 65]
4. CC(C)c1[nH]nc2c(NCc3ccc(-c4ccccn4)cc3)nc(NCC(O)CN)nc12 (centres unmarked) [Compound 45]
5. CC[C@H](CO)Nc1nc(NCc2ccc(-c3ccccn3)cc2)c2n[nH]c(C(C)C)c2n1 [Compound 83]

1. 0.322
2. 0.027
3. 0.023
4. 0.051
5. 0.054

====

target: CDK2/Cyclin E (Homo sapiens, UniProt P24941); construct: made in house; host or cells: Sf9 insect cells (baculovirus); assay: CDK2/Cyclin E kinase inhibition (33P-ATP, histone H1); assay type: biochemical; details: 15 μM ATP
Field: IC50. Provide a value for each of the compounds that follow.
One number for each entry, in µM.

// solved cases for IC50 follow
COMPOUND_STRUCTURE_STRING: CC(C)c1[nH]nc2c(NCc3ccc(-c4ccccn4)cc3)nc(NC[C@@H](C)O)nc12
UNIT_DESCRIPTOR: µM
IC50: 0.021
--
COMPOUND_STRUCTURE_STRING: CC(C)c1[nH]nc2c(NCc3ccc(-c4ccccn4)cc3)nc(NCCCO)nc12
UNIT_DESCRIPTOR: µM
IC50: 0.039

Let us move to another entry and its IC50.
Reported IC50 ( CC(C)c1[nH]nc2c(NCc3ccc(-c4ccccn4)cc3)nc(NCCN3CCCC3)nc12 ) = 0.64

====

Molecular target: CDK5/p35 (Homo sapiens, UniProt Q00535)
Construct: purchased ProQinase GmbH
Sequence (Q00535 whole entry): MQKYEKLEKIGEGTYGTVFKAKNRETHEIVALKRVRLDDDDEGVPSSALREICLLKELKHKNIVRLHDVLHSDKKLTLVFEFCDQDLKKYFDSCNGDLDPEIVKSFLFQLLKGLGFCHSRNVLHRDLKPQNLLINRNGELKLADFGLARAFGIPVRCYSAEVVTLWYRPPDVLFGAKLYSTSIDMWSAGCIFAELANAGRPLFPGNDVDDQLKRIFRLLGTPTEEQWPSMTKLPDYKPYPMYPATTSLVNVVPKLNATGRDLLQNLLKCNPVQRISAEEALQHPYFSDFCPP
Sequence (Q15078 whole entry partner): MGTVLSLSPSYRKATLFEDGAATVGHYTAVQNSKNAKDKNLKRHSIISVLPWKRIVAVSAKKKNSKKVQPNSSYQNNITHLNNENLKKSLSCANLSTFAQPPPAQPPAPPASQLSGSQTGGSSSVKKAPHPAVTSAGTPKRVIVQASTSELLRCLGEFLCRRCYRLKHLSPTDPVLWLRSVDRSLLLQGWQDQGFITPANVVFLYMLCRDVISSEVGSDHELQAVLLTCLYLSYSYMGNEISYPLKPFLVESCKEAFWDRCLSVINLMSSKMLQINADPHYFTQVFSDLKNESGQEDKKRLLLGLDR
Experiment: CDK5/p35 kinase inhibition (33P-ATP, histone H1)
Format: biochemical
Settings: 0.15 μM ATP
Description: CDK2/Cyclin E kinase was produced in Sf9 insect cells via baculoviral infection and purified on a NiNTA column (Qiagen). […] CDK5/p35 was purchased from ProQinase GmbH. The reactions were stopped by adding 5 μL of 3% aq H3PO4. Aliquots were spotted onto P-81 phosphocellulose (Whatman), washed 3× with 0.5% aq H3PO4 and finally air-dried.
MEASURED_PARAMETER: IC50
Mention the unit after the number when you answer.

// solved cases for IC50 follow
COMPOUND: CC(C)c1[nH]nc2c(NCc3ccc(-c4ccccn4)cc3)nc(NCC(O)CN)nc12 (stereo not shown) [Compound 45]
TESTED_TARGET: CDK5/p35 (Homo sapiens, UniProt Q00535)
IC50: 0.017 µM

COMPOUND: CC(C)c1n[nH]c2c(NCc3ccc(-c4ccccn4)cc3)nc(NCC(O)CO)nc12 (stereo not shown) [Compound 35]
TESTED_TARGET: CDK5/p35 (Homo sapiens, UniProt Q00535)
IC50: 0.017 µM

COMPOUND: CC(C)c1[nH]nc2c(NCc3ccc(-c4ccccn4)cc3)nc(N3CCN(CCO)CC3)nc12 [Compound 17]
TESTED_TARGET: CDK5/p35 (Homo sapiens, UniProt Q00535)
IC50: 0.422 µM

Let us move to another entry and its IC50.
Reported IC50 ( CC(C)c1[nH]nc2c(NCc3ccc(-c4ccccn4)cc3)nc(NCC(C)(C)O)nc12 [Compound 33] ) = 0.001 µM

====

system: MV4;11 (acute myelocytic leukemia); assay: MTT cytotoxicity assay, leukemic cell line MV4;11; format: cell-based; details: Homo sapiens, MV4-11, 72 h, three days
Criterion met if IC50 is below 0.3 µM. Criterion not met if not; exact matches included in Criterion not met.

COMPOUND: CC(C)c1n[nH]c2c(NCc3ccc(-c4ccccn4)cc3)ncnc12 [Compound 2]
CLASS_LABEL: Criterion not met
--
COMPOUND: CC[C@H](CO)Nc1nc(NCc2ccc(-c3ccccn3)cc2)c2n[nH]c(C(C)C)c2n1 [Compound 83]
CLASS_LABEL: Criterion met
--
COMPOUND: CC(C)c1[nH]nc2c(NCc3ccc(-c4ccccn4)cc3)nc(NC[C@@H](C)O)nc12 [Compound 27]
CLASS_LABEL: Criterion met
--
COMPOUND: CC(C)c1[nH]nc2c(NCc3ccc(-c4ccccn4)cc3)nc(N3CCNCC3)nc12 [Compound 13]
CLASS_LABEL: Criterion met

Bench note: check whether CC(C)c1n[nH]c2c(NCc3ccc(-c4ccccn4)cc3)nc(NCC(O)CO)nc12 (centres unmarked) [Compound 35] shows IC50 below 0.3 µM
Criterion met

Bench note: check whether CSc1nc(NCc2ccc(-c3ccccn3)cc2)c2[nH]nc(C(C)C)c2n1 [Compound 5] shows IC50 below 0.3 µM
Criterion not met

Bench note: check whether CC(C)c1[nH]nc2c(NCc3ccc(-c4ccccn4)cc3)nc(NCCCO)nc12 [Compound 29] shows IC50 below 0.3 µM
Criterion met

Bench note: check whether CC(C)c1[nH]nc2c(NCc3ccc(-c4ccccn4)cc3)nc(NCCN(C)C)nc12 [Compound 47] shows IC50 below 0.3 µM
Criterion met
